B1: H2-Kb / Ed5 (parent complex)
chain 1: GDSVTQTEGPVTVSESESLIINCTYSATSIAYPNLFWYVRYPGEGLQLLLKVITAGQKGSSRGFEATYNKETTSFHLQKASVQESDSAVYYCALGSYNQGKLIFGQGTKLSIKP
chain 2: DTTVKQNPRYKLARVGKPVNLICSQTMNHDTMYWYQKKPNQAPKLLLFYYDKILNREADTFEKFQSSRPNNSFCSLYIGSAGLEYSAMYLCASSRRLGASQNTLYFGAGTRLSVL
chain 3: not shown
chain 4: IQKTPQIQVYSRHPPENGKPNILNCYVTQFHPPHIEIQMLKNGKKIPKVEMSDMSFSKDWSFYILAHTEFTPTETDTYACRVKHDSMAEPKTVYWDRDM
chain 5: SIINFEKL

variants of: B1; experiment: % of reporter cells activated (NFAT-GFP), raw; further: test concentration or dose not given here
quantity: ratio to parent

Completed entries (count: 2):
changes="chain 5 N4Q" valueobserved=0.00458
changes="chain 5 I2N" valueobserved=0.749

[I] chain 5 N4H
[II] chain 5 L8I
[III] chain 5 S1I
[IV] chain 5 S1L
List from greatest to least ratio to parent. Please respond with the labels ordered as the question requires.
II, I, IV, III
